assay: recombinant UMI read abundance after kanamycin selection (control-corrected) (log10(CPM+1)); higher = more efficient recombination; extreme values may be limits of the assay; sequences stand for … in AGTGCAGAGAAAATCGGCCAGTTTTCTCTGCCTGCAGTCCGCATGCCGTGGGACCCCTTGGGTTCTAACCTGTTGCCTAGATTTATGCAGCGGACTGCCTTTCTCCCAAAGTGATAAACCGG…AGGTTGGTTTCACT; site = the 11-nt donor;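 note: IS621 bridge recombinase in Escherichia coli cells against a fixed T5 target plasmid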
Record true (1) whenever recombinant UMI read abundance (log10) is at 0.6 or higher; record false (0) when lower.

INSERT INTO assay_data (seq, class_name) VALUES
  ('CTACCAACATGGACCGGTTTTCCCGGTAATCCGTATTTGGA (site CTACAAACTTC)', 'false (0)'),
  ('CCAAGGTCATGGACCGGTTTTCCCGGTAATCCGTATTTGTT (site CCAAGGTCTAA)', 'true (1)'),
  ('GAGCTAACATGGACCGGTTTTCCCGGTAATCCGTATTTGAT (site GAGCTAACTAT)', 'true (1)'),
  ('CGTCCAACATGGACCGGTTTTCCCGGTAATCCGTATTTGTA (site AGTCCAACTTA)', 'false (0)'),
  ('CGGGAACCATGGACCGGTTTTCCCGGTAATCCGTATTTGAG (site CGGGAACCTAT)', 'false (0)');

Enquiry: recombinant UMI read abundance (log10) >= 0.6 for GGAAATCCATGGACCGGTTTTCCCGGTAATCCGTATTTGAA (site GGCAATCCTTT) ?
Return: false (0)

Enquiry: Could you tell me if the measured recombinant UMI read abundance (log10) of TATGCGGCATGGACCGGTTTTCCCGGTAATCCGTATTTGCT (site TATGCGGCTAG) reaches 0.6 or more?
Return: false (0)

Enquiry: Dear colleague, could you confirm whether ATCCCTGCATGGACCGGTTTTCCCGGTAATCCGTATTTGTG (site ATCCCTGCTCA) has recombinant UMI read abundance (log10) at or above 0.6?
Return: false (0)

Enquiry: Determine whether measured recombinant UMI read abundance (log10) meets or exceeds 0.6 for GAGCATGCATGGACCGGTTTTCCCGGTAATCCGTATTTGGT (site GAGCATGCTAC)
Return: true (1)

Enquiry: Decide: is the reported value of recombinant UMI read abundance (log10) for TCTGTCGCATGGACCGGTTTTCCCGGTAATCCGTATTTGGC (site TCTGTCGCTGC) equal to or greater than 0.6?
Return: false (0)

Enquiry: Item CCCTAGCCATGGACCGGTTTTCCCGGTAATCCGTATTTGCG (site CCCTAGCCTAG) with recombinant UMI read abundance (log10) of 0.6 or above?
Return: false (0)

Enquiry: Hi team, for AGCAAGGCATGGACCGGTTTTCCCGGTAATCCGTATTTGCT (site AGTAAGGCTAG) , is the recorded recombinant UMI read abundance (log10) at or above 0.6?
Return: false (0)

Enquiry: Is reported recombinant UMI read abundance (log10) greater than or equal to 0.6 here: CGAGGACCATGGACCGGTTTTCCCGGTAATCCGTATTTGGC (site CGAGGACCTTC)
Return: false (0)

Enquiry: Could you verify whether the entry CGGATAGCATGGACCGGTTTTCCCGGTAATCCGTATTTGTT (site CGGATAGCTAA) shows recombinant UMI read abundance (log10) of no less than 0.6?
Return: true (1)

Enquiry: Form field: recombinant UMI read abundance (log10) at least 0.6? Entry: CGCTCATCATGGACCGGTTTTCCCGGTAATCCGTATTTGCT (site CGCTCATCTAG)
Return: true (1)

Enquiry: Record GGATAGACATGGACCGGTTTTCCCGGTAATCCGTATTTGAC (site GGATAGACTGC) ; criterion: recombinant UMI read abundance (log10) no lower than 0.6. Met?
Return: true (1)

Enquiry: Tell me whether recombinant UMI read abundance (log10) is at least 0.6 here: TGGCTAGCATGGACCGGTTTTCCCGGTAATCCGTATTTGAA (site TTGCTAGCTTT)
Return: false (0)

Enquiry: Determine whether this sequence has recombinant UMI read abundance (log10) no lower than 0.6: GAATGGACATGGACCGGTTTTCCCGGTAATCCGTATTTGCA (site GAATGGTCTTG)
Return: true (1)

Enquiry: Please tell me: is the sequence CGAGAGTCATGGACCGGTTTTCCCGGTAATCCGTATTTGCC (site CGCGAGTCTGG) at or over 0.6 in terms of recombinant UMI read abundance (log10)?
Return: false (0)

Enquiry: Kindly determine if recombinant UMI read abundance (log10) recorded for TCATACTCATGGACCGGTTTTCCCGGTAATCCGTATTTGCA (site TCAGACTCTTG) is above or exactly 0.6.
Return: false (0)

Enquiry: Has GGATAATCATGGACCGGTTTTCCCGGTAATCCGTATTTGAA (site GGATAATCTTT) a recorded recombinant UMI read abundance (log10) greater than or equal to 0.6?
Return: true (1)
